target.entity: 5HT7 receptors (Homo sapiens)
measurement.description: Radiolabeled binding (IC50 and Ki), [3H]LSD competition on membranes of cells expressing recombinant 5HT7 receptors
Parameters: expressed in transfected cells
applied.conditions: [3H]LSD radioligand, membranes of cells expressing recombinant 5HT7 receptors; read-out: IC50 (nM)^1
measurement.name: IC50 (nM)
// note: answer is a bare numeric in nM

Given the entry CCC1(CC)CC(CCN2CCN(c3ccc(F)cc3)CC2)NC1=O (centres unmarked) , what IC50 was observed with 5HT7 receptors (Homo sapiens)?
8.5

Value wanted: IC50 (5HT7 receptors (Homo sapiens)) of entry CCC1(CC)CC(CCN2CCN(c3ccc(C)cc3N3CCOCC3)CC2)NC1=O (centres unmarked)
74

Can you look up IC50 on 5HT7 receptors (Homo sapiens) for CCC1(CC)CC(CCN2CCN(c3ccccc3C(C)C)CC2)NC1=O (centres unmarked) ?
23

Identify the measured IC50 of CCC1(CC)CC(CCN2CCN(c3ccccc3N3CCOCC3)CC2)NC1=O (centres unmarked) for 5HT7 receptors (Homo sapiens).
24

Give the reported IC50 for CCC1(CC)CC(CCN2CCN(c3ccc(O)cc3)CC2)NC1=O (centres unmarked) (system: 5HT7 receptors (Homo sapiens)).
34

What IC50 appears in the records for this compound with 5HT7 receptors (Homo sapiens)? CCC1(CC)CC(CCN2CCN(c3ccc(Cl)cc3)CC2)NC1=O (centres unmarked)
13

Quick check: IC50 on 5HT7 receptors (Homo sapiens), item CCC1(CC)CC(CCN2CCN(c3ccccc3)CC2)NC1=O (centres unmarked) ?
68

Record CCC1(CC)CC(CCN2CCN(c3ccc(C)cc3)CC2)NC1=O (centres unmarked) : what is its IC50 with 5HT7 receptors (Homo sapiens)?
28

###

target.entity: 5HT7 receptors (Homo sapiens)
measurement.description: Functional data (Kb), HitHunter cAMP enzyme fragment complementation assay with 5-HT as agonist
Assay type: cell-based
Design: expressed in transfected cells; G418 selection)
applied.conditions: cAMP assay, cells stably expressing human 5HT7 receptors, antagonist activity in the presence of EC70 5-HT; read-out: Kb (nM)^2
measurement.name: Kb (nM)
State just the number; it will be interpreted in nM.

What value of Kb on 5HT7 receptors (Homo sapiens) does CCC1(CC)CC(CCN2CCN(c3ccccc3)CC2)NC1=O (stereo not shown) have?
17.8

Continuing:
Form: Entry = CCC1(CC)CC(CCN2CCN(c3ccc(F)cc3)CC2)NC1=O (stereo not shown) | System = 5HT7 receptors (Homo sapiens) | Kb = ____
8.98

Tell me reported Kb for CCC1(CC)CC(CCN2CCN(c3ccc(O)cc3)CC2)NC1=O (stereo not shown) , tested with 5HT7 receptors (Homo sapiens).
50

Short answer please: Kb, 5HT7 receptors (Homo sapiens), entry CCC1(CC)CC(CCN2CCN(c3ccc(C)cc3)CC2)NC1=O (stereo not shown)
24.1

What measured Kb is associated with CS(=O)(=O)N1CCC2(CC1)C[C@@H](CCN1CCN(c3ccc(F)cc3)CC1)NC2=O [drawing 618; n=2; R3=4-F-Phenyl; R7=MeSO2] on 5HT7 receptors (Homo sapiens)?
74.2

Lab note: need Kb with 5HT7 receptors (Homo sapiens) for entry CCC1(CC)CC(CCN2CCN(c3ccc(C)cc3N3CCOCC3)CC2)NC1=O (stereo not shown) , please look it up.
59.3

Kb of CCC1(CC)CC(CCN2CCN(c3ccccc3C(C)C)CC2)NC1=O (stereo not shown) on 5HT7 receptors (Homo sapiens)?
163

###

target.entity: 5HT7 receptors (Homo sapiens, UniProt P34969)
Sequence (P34969 whole entry, the tested form may be a part): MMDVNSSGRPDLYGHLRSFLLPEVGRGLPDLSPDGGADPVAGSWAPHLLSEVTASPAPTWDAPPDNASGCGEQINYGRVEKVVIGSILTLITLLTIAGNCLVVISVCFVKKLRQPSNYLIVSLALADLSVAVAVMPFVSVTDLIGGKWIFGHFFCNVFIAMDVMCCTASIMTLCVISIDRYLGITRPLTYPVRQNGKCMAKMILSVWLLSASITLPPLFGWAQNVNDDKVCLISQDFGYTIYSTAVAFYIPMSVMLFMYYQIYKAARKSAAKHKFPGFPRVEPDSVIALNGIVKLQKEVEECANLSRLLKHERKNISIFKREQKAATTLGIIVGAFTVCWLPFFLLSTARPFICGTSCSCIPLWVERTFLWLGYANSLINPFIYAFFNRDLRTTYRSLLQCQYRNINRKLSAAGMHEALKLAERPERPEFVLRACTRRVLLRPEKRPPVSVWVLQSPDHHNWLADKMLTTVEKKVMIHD
measurement.description: Functional data (Kb), HitHunter cAMP enzyme fragment complementation assay with 5-HT as agonist
Assay type: cell-based
Parameters: expressed in transfected cells; G418 selection)
applied.conditions: Table 35, scaffold drawing 615; antagonist mode vs 5-HT; read-out: Kb
measurement.name: Kb (nM)
Numeric only. Scale: nM

So what's the measured Kb for this one? "CCC1(CC)C[C@H](CCN2CCN(c3ccccc3OC)CC2)NC1=O"
230

Kb lookup needed for "CCC1(CC)C[C@H](CCN2CCN(c3cccc(Cl)c3)CC2)NC1=O" , thanks.
1.38

Fill in: Kb of "CCC1(CC)C[C@H](CCN2CCN(c3ccccn3)CC2)NC1=O" is ___
4.91

What value of Kb has been reported for the following compound? "CCC1(CC)C[C@H](CCN2CCN(c3ccc(F)cc3)CC2)NC1=O"
0.81

Given the compound CCC1(CC)C[C@H](CCN2CCN(c3ccccc3)CC2)NC1=O [drawing 615 n=2 R1=Ethyl R2=Ethyl R3=Phenyl] , what is its reported Kb?
6.59

Next:
GET /values?readout=Kb&item= "CCC1(CC)C[C@H](CCN2CCN(c3ccc(F)c(Cl)c3)CC2)NC1=O"
1.92
